tested on: Escherichia coli TOP10; experiment: shrunken log2 fold change of peptide-encoding DNA abundance (4.5 h post-induction vs induction); higher = less antimicrobial activity (less host growth inhibition); conditions: time post-induction: 4.5 h; library: site-saturation at positions 5, 18, 19, 20;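 note: peptides expressed intracellularly from a pBAD plasmid library in pooled LB shake-flask culture, induced with 0.3% L-arabinose, DNA abundance read by NGS, three biological replicates, DESeq2 with apeglm shrinkage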
Classify by shrunken log2 fold change. Ranges: low (below -0.03), intermediate (-0.03 to below 0.3), high (0.3 or more)

# sequence-record, group
records = [
    ("RRIRSRPPRLPRPRPRPYSVPRP", "low"),
]

Hi there! Could you help me figure out the category for RRIRVRPPRLPRPRPRPLGFPRP please?
intermediate

Field: class (shrunken log2 fold change) — entry: RRIRWRPPRLPRPRPRPRTMPRP
intermediate

Bin this entry: RRIRVRPPRLPRPRPRPHEVPRP
low

Place this sequence in its band: RRIRERPPRLPRPRPRPHLFPRP
low

Sort into band: RRIRRRPPRLPRPRPRPIKPPRP
intermediate

Could you place RRIRARPPRLPRPRPRPPLLPRP in its proper category? Many thanks.
high

Form field 'band' for RRIRVRPPRLPRPRPRPKKKPRP
low
